System: U-251
Experiment Notes: Tested for in vitro cytotoxic activity against CNS U251 human cancer cell lines
Type: functional
# strict inequality: GI50 < 8 µM yields criterion met, everything else yields criterion not met

(Q) Please state whether GI50 is below 8 µM for CCCCC1(O)c2ccccc2-n2c1nc1ccccc1c2=O (stereo not drawn)
(A) criterion not met

(Q) Please state whether GI50 is below 8 µM for CN(C)CCCO/N=C1\c2cc([N+](=O)[O-])ccc2-n2c1nc1ccccc1c2=O
(A) criterion met

Others:
(Q) Please state whether GI50 is below 8 µM for O=C(CO/N=C1\c2ccccc2-n2c1nc1ccccc1c2=O)Nc1ccccn1
(A) criterion not met

(Q) Please state whether GI50 is below 8 µM for O=C1c2cc3c(cc2-n2c1nc1ccccc1c2=O)OCO3
(A) criterion not met

(Q) Please state whether GI50 is below 8 µM for O=c1c2ccccc2nc2n1-c1ccc([N+](=O)[O-])cc1/C2=N\OCCO
(A) criterion met

(Q) Please state whether GI50 is below 8 µM for O=c1c2ccccc2nc2n1-c1ccccc1/C2=N\OCCO
(A) criterion met

(Q) Please state whether GI50 is below 8 µM for COc1cc2nc3n(c(=O)c2cc1OC)-c1ccccc1C3=O
(A) criterion not met

(Q) Please state whether GI50 is below 8 µM for Cc1ccc2c(c1)C(=O)c1nc3ccccc3c(=O)n1-2
(A) criterion not met

(Q) Please state whether GI50 is below 8 µM for CCC(=O)Nc1ccc2c(c1)C(=O)c1nc3ccccc3c(=O)n1-2
(A) criterion not met

(Q) Please state whether GI50 is below 8 µM for CN(C)CCO/N=C1\c2cc([N+](=O)[O-])ccc2-n2c1nc1ccccc1c2=O
(A) criterion met

(Q) Please state whether GI50 is below 8 µM for CCCC(=O)Nc1ccc2c(c1)C(=O)c1nc3ccccc3c(=O)n1-2
(A) criterion not met

(Q) Please state whether GI50 is below 8 µM for CN(C)CCO/N=C1\c2ccccc2-n2c1nc1ccccc1c2=O
(A) criterion met

(Q) Please state whether GI50 is below 8 µM for CN1CCN(CC(=O)Nc2ccc3c(c2)C(=O)c2nc4ccccc4c(=O)n2-3)CC1
(A) criterion not met

(Q) Please state whether GI50 is below 8 µM for O=C1c2cc(Br)ccc2-n2c1nc1ccccc1c2=O
(A) criterion not met

(Q) Please state whether GI50 is below 8 µM for CN(C)CCO/N=C1\c2cc(Br)ccc2-n2c1nc1ccccc1c2=O
(A) criterion met

(Q) Please state whether GI50 is below 8 µM for O=C1c2ccccc2-n2c1nc1ccc(Br)cc1c2=O
(A) criterion not met

###

Experiment Notes: Bioavailability (dose 20 mg/kg)
Assay type: ADME, organism-based
Measurement Setup: eutheria, in vivo
Overview of recorded bioavailability for various compounds
Write the value in % as a bare number.

Recorded result, CN(C)CCCO/N=C1\c2cc([N+](=O)[O-])ccc2-n2c1nc1ccccc1c2=O , bioavailability: 76

Next compound, please.
Recorded result, CN(C)CCO/N=C1\c2ccccc2-n2c1nc1ccccc1c2=O , bioavailability: 14

###

System: M14
Experiment Notes: Tested for in vitro cytotoxic activity against melanoma M14 human cancer cell lines
Assay type: functional
Measure Name: GI50 (µM)
Write the value in µM as a bare number.

Worked cases, GI50 given:
Kindly note: M14, COC(=O)CO/N=C1\c2ccccc2-n2c1nc1ccccc1c2=O , GI50 value reported: 40

Kindly note: M14, O=c1c2ccccc2nc2n1-c1ccccc1/C2=N\OCCN1CCCC1 , GI50 value reported: 2

Kindly note: M14, O=C1c2cc(Br)ccc2-n2c1nc1ccccc1c2=O , GI50 value reported: 0.8

Kindly note: M14, CN(C)CCO/N=C1\c2cc([N+](=O)[O-])ccc2-n2c1nc1ccccc1c2=O , GI50 value reported: 7.5

Kindly note: M14, O=c1c2ccccc2nc2n1-c1ccc(Br)cc1/C2=N\OCCN1CCCCC1 , GI50 value reported: 2.5

Others:
Kindly note: M14, Nc1ccc2c(c1)C(=O)c1nc3ccccc3c(=O)n1-2 , GI50 value reported: 5

Kindly note: M14, O=Nc1c2ccccc2n2c(O)c3ccccc3nc12 , GI50 value reported: 40

Kindly note: M14, O=C1c2cc([N+](=O)[O-])ccc2-n2c1nc1ccccc1c2=O , GI50 value reported: 15

Kindly note: M14, O=c1c2ccccc2nc2n1-c1ccc([N+](=O)[O-])cc1/C2=N\OCCO , GI50 value reported: 2

###

Test system: U-251
Experiment Notes: Tested for in vitro cytotoxic activity against CNS U251 human cancer cell lines
Assay type: functional
Measure Name: GI50

Worked cases, GI50 given:
Recorded result, Nc1ccc2c(c1)C(=O)c1nc3ccccc3c(=O)n1-2 , GI50: 0.7 µM

Recorded result, O=C1c2ccccc2-n2c1nc1ccc([N+](=O)[O-])cc1c2=O , GI50: > 100 µM

Recorded result, COC(=O)CO/N=C1\c2ccccc2-n2c1nc1ccccc1c2=O , GI50: > 100 µM

Recorded result, C=CC1(O)c2ccccc2-n2c1nc1ccccc1c2=O (stereo not drawn) , GI50: 12 µM

Others:
Recorded result, O=C(/C=C/c1ccccc1)O/N=C1\c2ccccc2-n2c1nc1ccccc1c2=O , GI50: 20 µM

Recorded result, O=c1c2ccccc2nc2n1-c1ccc(Br)cc1/C2=N\OCCN1CCCCC1 , GI50: 0.095 µM

Recorded result, Nc1ccc2nc3n(c(=O)c2c1)-c1ccccc1C3=O , GI50: 70 µM

Recorded result, CS(=O)(=O)Nc1ccc2c(c1)C(=O)c1nc3ccccc3c(=O)n1-2 , GI50: > 100 µM

Recorded result, O=Nc1c2ccccc2n2c(O)c3ccccc3nc12 , GI50: 15 µM

Recorded result, O=C1c2cc([N+](=O)[O-])ccc2-n2c1nc1ccccc1c2=O , GI50: 4.5 µM

Recorded result, O=c1c2ccccc2nc2n1-c1ccccc1C2(O)OCCOc1ccccc1 (stereo not drawn) , GI50: > 100 µM

Recorded result, CC(=O)Nc1ccc2c(c1)C(=O)c1nc3ccccc3c(=O)n1-2 , GI50: 20 µM

Recorded result, CN(C)CCCO/N=C1\c2ccccc2-n2c1nc1ccccc1c2=O , GI50: 0.7 µM

###

Test system: U-251
Experiment Notes: Tested for in vitro cytotoxic activity against CNS U251 human cancer cell lines
Type: functional
Measure Name: GI50 (µM)
Write the value in µM as a bare number.

Worked cases, GI50 given:
Kindly note: U-251, O=C(CCl)Nc1ccc2c(c1)C(=O)c1nc3ccccc3c(=O)n1-2 , GI50 value reported: 0.2

Kindly note: U-251, O=C1c2ccccc2-n2c1nc1ccccc1c2=O , GI50 value reported: 100

Others:
Kindly note: U-251, O=c1c2ccccc2nc2n1-c1ccccc1/C2=N\OCCCN1CCCC1 , GI50 value reported: 6

Kindly note: U-251, O=c1c2ccccc2nc2n1-c1ccccc1/C2=N\OCCN1CCCC1 , GI50 value reported: 25

###

Test system: M14
Experiment Notes: Tested for in vitro cytotoxic activity against melanoma M14 human cancer cell lines
Format: functional
Category scheme (GI50): bottom end (below 6 µM), midrange (6 µM to below 20 µM), top end (20 µM or more)

(Q) Which category does the recorded GI50 put O=C1c2ccccc2-n2c1nc1ccc(Br)cc1c2=O in?
(A) top end

(Q) Which category does the recorded GI50 put CS(=O)(=O)Nc1ccc2c(c1)C(=O)c1nc3ccccc3c(=O)n1-2 in?
(A) top end

(Q) Which category does the recorded GI50 put CCCCC1(O)c2ccccc2-n2c1nc1ccccc1c2=O (configuration not stated) in?
(A) top end

(Q) Which category does the recorded GI50 put O=C1c2ccccc2-n2c1nc1ccccc1c2=O in?
(A) midrange

(Q) Which category does the recorded GI50 put CC(=O)Nc1ccc2c(c1)C(=O)c1nc3ccccc3c(=O)n1-2 in?
(A) midrange

(Q) Which category does the recorded GI50 put CC1(O)c2ccccc2-n2c1nc1ccccc1c2=O (configuration not stated) in?
(A) top end

Others:
(Q) Which category does the recorded GI50 put O=c1c2ccccc2nc2n1-c1ccccc1C2(O)OCCOc1ccccc1 (configuration not stated) in?
(A) top end

(Q) Which category does the recorded GI50 put O=C(/C=C/c1ccccc1)O/N=C1\c2ccccc2-n2c1nc1ccccc1c2=O in?
(A) top end

(Q) Which category does the recorded GI50 put COc1cc2nc3n(c(=O)c2cc1OC)-c1ccccc1C3=O in?
(A) top end

(Q) Which category does the recorded GI50 put O=C(CO/N=C1\c2ccccc2-n2c1nc1ccccc1c2=O)Nc1ccccn1 in?
(A) top end

(Q) Which category does the recorded GI50 put C=CC1(O)c2ccccc2-n2c1nc1ccccc1c2=O (configuration not stated) in?
(A) midrange

(Q) Which category does the recorded GI50 put O=C1c2cc(Cl)ccc2-n2c1nc1ccccc1c2=O in?
(A) top end

(Q) Which category does the recorded GI50 put CN1CCN(CC(=O)Nc2ccc3c(c2)C(=O)c2nc4ccccc4c(=O)n2-3)CC1 in?
(A) midrange

(Q) Which category does the recorded GI50 put CN(C)CCO/N=C1\c2ccccc2-n2c1nc1ccccc1c2=O in?
(A) bottom end
